Hi! I'm sharing some IC50 results obtained with Amyloid-beta precursor protein (Homo sapiens).
Sequence (P05067 whole entry): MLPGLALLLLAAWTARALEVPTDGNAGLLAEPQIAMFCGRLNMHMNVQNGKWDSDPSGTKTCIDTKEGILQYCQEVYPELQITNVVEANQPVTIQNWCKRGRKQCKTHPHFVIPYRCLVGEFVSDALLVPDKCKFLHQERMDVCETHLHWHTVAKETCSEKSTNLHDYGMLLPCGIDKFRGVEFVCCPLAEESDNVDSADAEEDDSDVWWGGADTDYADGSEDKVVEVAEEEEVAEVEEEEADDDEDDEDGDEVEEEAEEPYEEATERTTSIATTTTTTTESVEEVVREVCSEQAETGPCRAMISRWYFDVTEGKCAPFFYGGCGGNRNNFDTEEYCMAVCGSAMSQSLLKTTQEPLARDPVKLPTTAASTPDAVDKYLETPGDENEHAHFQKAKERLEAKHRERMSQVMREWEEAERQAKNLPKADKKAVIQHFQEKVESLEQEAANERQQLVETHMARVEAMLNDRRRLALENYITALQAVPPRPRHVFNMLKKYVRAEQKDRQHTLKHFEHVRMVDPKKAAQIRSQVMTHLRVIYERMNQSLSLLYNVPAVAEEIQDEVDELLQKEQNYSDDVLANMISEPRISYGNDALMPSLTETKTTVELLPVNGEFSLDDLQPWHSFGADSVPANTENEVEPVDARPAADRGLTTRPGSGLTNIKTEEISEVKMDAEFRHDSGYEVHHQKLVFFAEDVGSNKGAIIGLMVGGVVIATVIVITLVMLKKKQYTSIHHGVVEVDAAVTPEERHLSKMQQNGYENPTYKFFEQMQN
Give bare numbers, in µM.

Guide cases for IC50, answers given:
>>> recorded_number("C[C@H](C(=O)NCCCNCCCNC1=CC(=O)C(NCCCNCCCNC(=O)[C@@H](C)c2ccc(-c3ccccc3)c(F)c2)=CC1=O)c1ccc(-c2ccccc2)c(F)c1")
4.43
>>> recorded_number("CC(C)Cc1ccc(C(C)C(=O)NCCCNCCCNC2=CC(=O)C(NCCCNCCCNC(=O)C(C)c3ccc(CC(C)C)cc3)=CC2=O)cc1 (stereo not given)")
4.83
>>> recorded_number("CC1=C(CC(=O)NCCCNCCCNC2=CC(=O)C(NCCCNCCCNC(=O)CC3=C(C)/C(=C\\c4ccc([S+](C)[O-])cc4)c4ccc(F)cc43)=CC2=O)c2cc(F)ccc2/C1=C/c1ccc([S+](C)[O-])cc1 (stereo not given)")
8.18
>>> recorded_number("C[C@@H](C(=O)NCCCNCCCNC1=CC(=O)C(NCCCNCCCNC(=O)[C@H](C)c2ccc(-c3ccccc3)c(F)c2)=CC1=O)c1ccc(-c2ccccc2)c(F)c1")
4.77

(Q) // fetch Amyloid-beta precursor protein (Homo sapiens) IC50 for CCN(CCCCCCNC1=CC(=O)C(NCCCCCCN(CC)Cc2ccccc2OC)=CC1=O)Cc1ccccc1OC
(A) 5.93
